Entry source: patent US4470926A

test system: human peripheral lymphocytes; format: cell-based; details: cell pair CD; 1 μg fragment per ml; culture blocked with 1 μg α-amanitin per ml
No end group written: not given here.
quantity: stimulation (+) / inhibition (-) (%) of the mixed lymphocyte culture

- substance: "TSSEIT [II]"
  target-desc: "human peripheral lymphocytes"
  measurement-unit: "%"
  assay-result: -98
- substance: "KDAAVD [Ia]"
  target-desc: "human peripheral lymphocytes"
  measurement-unit: "%"
  assay-result: -53
